- Assay type: cell-based, human
- test conditions: human, Cell viability (%)
Bridge positions count the residues as written; N and C are the ends. Square brackets hold non-standard residues; d marks the D form. Peptide text beside a SMILES is read from it. * marks the point of attachment. X1 = N=C(N)N[C@@H](Cc1ccccc1)C(=O)*
property measured: viability at 24 h, 6.25 µM (%)
Answers are plain numbers, in %.

Request the reported viability at 24 h, 6.25 µM associated with CC[C@H](C)[C@H](NC(=O)[C@H](CCCNC(=N)N)NC(=O)[C@H]1CCC(=O)NCCCC[C@H](NC(=O)[C@H](Cc2ccccc2)NC(=O)[C@H](Cc2c[nH]c3ccccc23)NC(=O)[C@@H]2CCCN2C(=O)[C@@H](NC(=O)[C@H](Cc2ccccc2)NC(=N)N)C(C)C)C(=O)N[C@@H](CCCCN)C(=O)N[C@@H](Cc2ccccc2)C(=O)N[C@H](CC(C)C)C(=O)N1)C(=O)N[C@@H](CC(C)C)C(N)=O [Peptide 3, guanidino-FVPWF[KKFle]RIL] (X1-VPWFKKF[dL][dE]RIL-NH2; lactam 5-9)
105

###

- Tested on: A. baumannii ATCC 19606
- protocol description: microbe, parasite or virus in culture
- Assay type: cell-based
- test conditions: ATCC 19606
Bridge positions count the residues as written; N and C are the ends. Square brackets hold non-standard residues; d marks the D form. Peptide text beside a SMILES is read from it. * marks the point of attachment. Pro(cis-4-guanidino) = NC(N)=N[C@@H]1CN[C@H](C(=O)O)C1; Phe(4-guanidino) = N=C(N)Nc1ccc(C[C@H](N)C(=O)O)cc1; Butanoyl(4-guanidino) = N=C(N)NCCCC(=O)*
Hi there, I'd appreciate the recorded MIC for every entry that follows.
Give bare numbers, in µM.

Observe how each entry below is paired with its result.
- compound: "CC[C@H](C)[C@H](NC(=O)[C@H](CCCNC(=N)N)NC(=O)[C@@H]1CCCNC(=N)NCCC[C@H](NC(=O)[C@H](Cc2ccccc2)NC(=O)[C@H](Cc2c[nH]c3ccccc23)NC(=O)[C@@H]2CCCN2C(=O)[C@@H](NC(=O)[C@@H](N)Cc2ccccc2)C(C)C)C(=O)N[C@@H](CCCCN)C(=O)N[C@@H](Cc2ccccc2)C(=O)N[C@H](CC(C)C)C(=O)N1)C(=O)N[C@@H](CC(C)C)C(N)=O [Peptide 13, FVPWF{OrnKFlOrn}RIL]"
  measured on: "A. baumannii ATCC 19606"
  MIC / µM: 1.56
- compound: "CC[C@H](C)[C@H](NC(=O)[C@H](CCCNC(=N)N)NC(=O)[C@H]1CCC(=O)NCCCC[C@H](NC(=O)[C@H](Cc2ccccc2)NC(=O)[C@H](Cc2c[nH]c3ccccc23)NC(=O)[C@@H]2CCCN2C(=O)[C@@H](NC(=O)[C@@H](N)Cc2ccc(NC(=N)N)cc2)C(C)C)C(=O)N[C@@H](CCCCN)C(=O)N[C@@H](Cc2ccccc2)C(=O)N[C@H](CC(C)C)C(=O)N1)C(=O)N[C@@H](CC(C)C)C(N)=O [Peptide 6, (p-guanidino)FVPWF[KKFle]RIL] (H-[Phe(4-guanidino)]VPWFKKF[dL][dE]RIL-NH2; lactam 6-10)"
  measured on: "A. baumannii ATCC 19606"
  MIC / µM: 3.12
- compound: "CC[C@H](C)[C@H](NC(=O)[C@H](CCCNC(=N)N)NC(=O)[C@H]1CCC(=O)NCCCC[C@H](NC(=O)[C@H](Cc2ccccc2)NC(=O)[C@H](Cc2c[nH]c3ccccc23)NC(=O)[C@@H]2CCCN2C(=O)[C@@H](NC(=O)[C@@H](N)Cc2ccccc2)C(C)C)C(=O)N[C@@H](CCCCN)C(=O)N[C@@H](Cc2ccc(NC(=N)N)cc2)C(=O)N[C@H](CC(C)C)C(=O)N1)C(=O)N[C@@H](CC(C)C)C(N)=O [Peptide 10, FVPWF[KK(p-guanidino)Fle]RIL] (H-FVPWFKK[Phe(4-guanidino)][dL][dE]RIL-NH2; lactam 6-10)"
  measured on: "A. baumannii ATCC 19606"
  MIC / µM: 6.25
- compound: "CC[C@H](C)[C@H](NC(=O)[C@H](CCCNC(=N)N)NC(=O)[C@H]1CCC(=O)NCCCC[C@H](NC(=O)[C@H](Cc2ccccc2)NC(=O)[C@H](Cc2c[nH]c3ccccc23)NC(=O)[C@@H]2C[C@H](NC(=N)N)CN2C(=O)[C@@H](NC(=O)[C@@H](N)Cc2ccccc2)C(C)C)C(=O)N[C@@H](CCCCN)C(=O)N[C@@H](Cc2ccccc2)C(=O)N[C@H](CC(C)C)C(=O)N1)C(=O)N[C@@H](CC(C)C)C(N)=O [Peptide 7, FV(4-guanidino)PWF[KKFle]RIL] (H-FV[Pro(cis-4-guanidino)]WFKKF[dL][dE]RIL-NH2; lactam 6-10)"
  measured on: "A. baumannii ATCC 19606"
  MIC / µM: 3.12

// fetch A. baumannii ATCC 19606 MIC for CC[C@H](C)[C@H](NC(=O)[C@H](CCCNC(=N)N)NC(=O)[C@H]1CCC(=O)NCCCC[C@H](NC(=O)[C@H](Cc2ccccc2)NC(=O)[C@H](Cc2c[nH]c3ccccc23)NC(=O)[C@@H]2CCCN2C(=O)[C@@H](NC(=O)[C@H](Cc2ccccc2)NC(=O)CCCNC(=N)N)C(C)C)C(=O)N[C@@H](CCCCN)C(=O)N[C@@H](Cc2ccccc2)C(=O)N[C@H](CC(C)C)C(=O)N1)C(=O)N[C@@H](CC(C)C)C(N)=O [Peptide 5, guanidino-GABA-FVPWF[KKFle]RIL] ({Butanoyl(4-guanidino)}-FVPWFKKF[dL][dE]RIL-NH2; lactam 6-10)
3.12
